# System: HL-60
# EXPERIMENTAL DETAILS: Cytotoxicity against human HL60 cells after 72 hrs by MTT assay
# Format: functional, cell-based
# TEST CONDITIONS: HL-60, 72 h
OBSERVABLE: log10 IC50 (log10 of the value in µg/mL)
A difference of one corresponds to tenfold IC50; all values are log10 with IC50 in µg/mL.

Which log10 IC50 is reported for this compound? `C[C@]12CC[C@H](O)C[C@@]1(O)CC[C@@H]1[C@@H]2CC[C@]2(C)[C@@H](c3ccc(=O)oc3)[C@@H](O)[C@H]3O[C@]132`
0.63

Entry `C[C@]12CC[C@H](O)C[C@H]1CC[C@@H]1[C@@H]2CC[C@]2(C)[C@@H](c3ccc(=O)oc3)[C@@H](O)C[C@]12O` has what log10 IC50?
-1.60

For the compound `C[C@]12CC[C@H]3[C@@H](CC[C@@H]4C[C@@H](O)CC[C@@]43CO)[C@]13O[C@@H]3[C@H](O)[C@@H]2c1ccc(=O)oc1` , what log10 IC50 is on record?
-0.31

What does the data say about its log10 IC50? Entry: `C[C@]12CC[C@H](O)C[C@H]1CC[C@@H]1[C@@H]2CC[C@]2(C)[C@@H](c3ccc(=O)oc3)C[C@H]3O[C@]132`
-0.30

What log10 IC50 value was documented for this compound, `CC(=O)O[C@H]1[C@H]2O[C@]23[C@@H]2CC[C@]4(O)C[C@@H](O)CC[C@]4(C)[C@H]2CC[C@]3(C)[C@H]1c1ccc(=O)oc1` ?
-1.33

Entry `C[C@]12CC[C@H](O)C[C@H]1CC[C@@H]1[C@@H]2C[C@@H](O)[C@]2(C)[C@@H](c3ccc(=O)oc3)C[C@H]3O[C@]132` : reported log10 IC50 = ?
-1.35

Fill in the blank: the reported log10 IC50 of `CC(=O)O[C@H]1[C@H]2O[C@]23[C@@H]2C[C@H](O)[C@@H]4C[C@@H](O)CC[C@]4(C)[C@H]2CC[C@]3(C)[C@H]1c1ccc(=O)oc1` is ____.
-1.42

Form field: reported log10 IC50 of `C[C@]12CC[C@H]3[C@@H](CC[C@@H]4C[C@@H](O)CC[C@@]43CO)[C@]13O[C@@H]3C[C@@H]2c1ccc(=O)oc1`
-0.32

What value of measured log10 IC50 is listed for `C[C@]12CC[C@H](O)C[C@H]1CC[C@@H]1[C@@H]2CC[C@]2(C)[C@@H](c3ccc(=O)oc3)[C@@H](O)[C@H]3O[C@]132` ?
0.00

Query: log10 IC50; subject: `C[C@]12CC[C@H](O)C[C@H]1CC[C@@H]1[C@@H]2[C@H](O)C[C@]2(C)[C@@H](c3ccc(=O)oc3)CC[C@]12O`
-1.85
